System: HEK293T;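 also: lentiviral eGFP-IRES-mCherry reporter pool sorted by FACS 96 h post-transduction, gated on mCherry-high cells, Illumina read counts normalized per million, median across four biological replicates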
protocol: median enrichment of reporter reads in eGFP-reduced (low/intermediate) vs eGFP-high sorted cells (eGFP-extension fusion abundance) (ratio); higher = stronger loss of eGFP-fusion protein abundance (more destabilising extension)
observation-type: median enrichment

[[record]]
substance = "RMSSFIRIWALSSFFSTHFPLPGPPLIQMPPSDSSWKPFLQLGQYDF [MSANTD2]"
observation_type = "median enrichment"
quantitative_result = 33.9

[[record]]
substance = "YYYYYYYY [Tyr08]"
observation_type = "median enrichment"
quantitative_result = 5.87

[[record]]
substance = "VAANTPASGLLVAAPGDTPAKPTRWRGPPWSLATLPASAQGPLPSPGHLLCRRHSSQKPLSQKRLVFKKSRFFAPEVSFRGRM [AP1M1]"
observation_type = "median enrichment"
quantitative_result = 4.38

[[record]]
substance = "QHLPEETPLPTLPERGSLRTGWRRWGPSRAPGALPGMSRPTHPKAGAAAPCCPSPGLGNDDPPKSPSAPQTQGLRPPAPGIRE [FXYD7]"
observation_type = "median enrichment"
quantitative_result = 0.759

[[record]]
substance = "SGIRLPGNSGTVALADHLQHPAS [SLC2A10]"
observation_type = "median enrichment"
quantitative_result = 0.633

[[record]]
substance = "RTFATVYFKNKFKLFYHFI [ABCB4]"
observation_type = "median enrichment"
quantitative_result = 7.31

[[record]]
substance = "LGLGRAHSAG [ATPAF2]"
observation_type = "median enrichment"
quantitative_result = 10

[[record]]
substance = "YTHMYDPYKCFKILKM [TRDN]"
observation_type = "median enrichment"
quantitative_result = 11.1

[[record]]
substance = "LRGPSPPPMAGG [Degron KLHDC2]"
observation_type = "median enrichment"
quantitative_result = 5.1

[[record]]
substance = "SSSSSS [Ser06]"
observation_type = "median enrichment"
quantitative_result = 0.35

[[record]]
substance = "YGSAKSLWDWKSGPGLPDRQPEDLPSTMHHGRGRSMKN [SLC39A14]"
observation_type = "median enrichment"
quantitative_result = 0.591

[[record]]
substance = "WQLPGDSRLSDSLQEKTVRPPFGPH [SYCE2]"
observation_type = "median enrichment"
quantitative_result = 0.972

[[record]]
substance = "YQVAELGPLGQGAQATSSFVVTKQGSPFPFLLPYFVQRTRVIYIYICICLYPSPHLSDSALGTQLWAARGAVPCGSSCVCVPS [SCAMP5]"
observation_type = "median enrichment"
quantitative_result = 8.36

[[record]]
substance = "EIPQHGSLMFICCLSFLLSFPVCFQFSTSSAHPVLCPFVCVRTI [PCLO]"
observation_type = "median enrichment"
quantitative_result = 8.91

[[record]]
substance = "SASAEVTEKPYDDVPDFSVGRSRPVA [TCF25]"
observation_type = "median enrichment"
quantitative_result = 0.734

[[record]]
substance = "RFLVTA [GXYLT1]"
observation_type = "median enrichment"
quantitative_result = 2.37

[[record]]
substance = "YEQCIT [DCTN6]"
observation_type = "median enrichment"
quantitative_result = 2.67

[[record]]
substance = "RPSGPPLPLGQGNQLLRDFSCLEGAVIAPPHCPTVLLGL [FBXW4]"
observation_type = "median enrichment"
quantitative_result = 4.69

[[record]]
substance = "WPTSRIYSSWKLPNGEDSTKY [KRTAP24-1]"
observation_type = "median enrichment"
quantitative_result = 3.66

[[record]]
substance = "LWRQALQGGPDPRVVLTVLTVYLSSPRENASFEHTVPTICIEQKDFCFTEDKRCFYFRPRREEFALNL [CNOT8]"
observation_type = "median enrichment"
quantitative_result = 15.4

[[record]]
substance = "YTAQGSPTQAPTLLLLALLPASVQRTGRYWWEALCLAPQLPVWASKHNGPSRSLVETGVVVPNLPSALPLHRTQRPQALQGVL [AMIGO3]"
observation_type = "median enrichment"
quantitative_result = 8.02

[[record]]
substance = "RGRTSALSDRTLRAMLPCHP [MRGPRX3]"
observation_type = "median enrichment"
quantitative_result = 6.81

[[record]]
substance = "RILSLIPATPLLISGGRTVSELFVSIGHLSLVVKDWLMITMHRKTFRRKGECFVDHFGFLFCVWQF [EEF1A1]"
observation_type = "median enrichment"
quantitative_result = 5.71

[[record]]
substance = "LQIYVCYN [OR8I2]"
observation_type = "median enrichment"
quantitative_result = 6.8

[[record]]
substance = "WARRASQRSGQAVRPWPSVC [INMT]"
observation_type = "median enrichment"
quantitative_result = 9.99

[[record]]
substance = "YGLAKAPIEALCQ [PITHD1]"
observation_type = "median enrichment"
quantitative_result = 1.66

[[record]]
substance = "CDARQFLDLGGLKRPPSCLLSFSVSSFLLVFFILFSFHQPSCILALQRDRDRSSAQGFSLPLFIMGGGYHPPSQSCEESGTSF [NOTCH3]"
observation_type = "median enrichment"
quantitative_result = 9.5

[[record]]
substance = "LPRPQPGPRTSGHRWHQPLLQDHQSGAPRTLACVP [GSG1L]"
observation_type = "median enrichment"
quantitative_result = 17.3

[[record]]
substance = "RSRVFQVPGPWL [MYL4]"
observation_type = "median enrichment"
quantitative_result = 1.67

[[record]]
substance = "SRNMSSQGIETALNSLTSRL [PCLO]"
observation_type = "median enrichment"
quantitative_result = 3.6

[[record]]
substance = "LVVAGPGPRPCPGPDSLSHVPSPRLPRTLSLPRPQP [MAFB]"
observation_type = "median enrichment"
quantitative_result = 9.74

[[record]]
substance = "YRGPCRHHPPPSPCPQPVCPVPCPPQAWWWQWRRLRRLKRLTGRGAFCLAHCPDDPPAPSRLQQQSPRRTGWTEEKEVDCCTH [SOX10]"
observation_type = "median enrichment"
quantitative_result = 3.52

[[record]]
substance = "LTSQST [ANGPT2]"
observation_type = "median enrichment"
quantitative_result = 0.829

[[record]]
substance = "AAAAAAAAAA [Ala10]"
observation_type = "median enrichment"
quantitative_result = 8.89

[[record]]
substance = "LDRTCLRGRRTLAWAQESEAAFLLRGPSGESGPRYHARTLRGPVSCRRVSTFPPNPGLTALRSARRARAETRVGCGELKEPIK [UQCC3]"
observation_type = "median enrichment"
quantitative_result = 3.74

[[record]]
substance = "WILAELLCT [COPS4]"
observation_type = "median enrichment"
quantitative_result = 5.2

[[record]]
substance = "WMSMSEGKENFGHQNPAPSELKELIYFMKLILLCVCSWC [GALNT15]"
observation_type = "median enrichment"
quantitative_result = 26.8

[[record]]
substance = "YVCCLPSPSGHTLLYHTTGLDSGWRQIDTV [LIG3]"
observation_type = "median enrichment"
quantitative_result = 5.91

[[record]]
substance = "FFFFFFFFF [Phe09]"
observation_type = "median enrichment"
quantitative_result = 9.48

[[record]]
substance = "AAAAAAA [Ala07]"
observation_type = "median enrichment"
quantitative_result = 8.7

[[record]]
substance = "WQMVIPFYFSS [CXorf1]"
observation_type = "median enrichment"
quantitative_result = 10.3

[[record]]
substance = "QSIQQSLIRHAKI [SDHAF3]"
observation_type = "median enrichment"
quantitative_result = 4.37

[[record]]
substance = "WKGRAQQCK [IRX2]"
observation_type = "median enrichment"
quantitative_result = 0.459

[[record]]
substance = "YVGRSPRPLPSSGDNQQ [CPNE9]"
observation_type = "median enrichment"
quantitative_result = 0.56

[[record]]
substance = "SDFYLNRETYARTVWTNSRPRHGARRPAGLPPLDGRGKDGRELHCESAARAAGGWDWSSLYCR [DOT1L]"
observation_type = "median enrichment"
quantitative_result = 6.88

[[record]]
substance = "GAAPQAGVEPDLGTKD [ZNF688]"
observation_type = "median enrichment"
quantitative_result = 0.378

[[record]]
substance = "FFFFFFFFFF [Phe10]"
observation_type = "median enrichment"
quantitative_result = 7.03

